- target.or.test.system: D(4) dopamine receptor (Homo sapiens, UniProt P21917)
- Sequence (P21917 whole entry): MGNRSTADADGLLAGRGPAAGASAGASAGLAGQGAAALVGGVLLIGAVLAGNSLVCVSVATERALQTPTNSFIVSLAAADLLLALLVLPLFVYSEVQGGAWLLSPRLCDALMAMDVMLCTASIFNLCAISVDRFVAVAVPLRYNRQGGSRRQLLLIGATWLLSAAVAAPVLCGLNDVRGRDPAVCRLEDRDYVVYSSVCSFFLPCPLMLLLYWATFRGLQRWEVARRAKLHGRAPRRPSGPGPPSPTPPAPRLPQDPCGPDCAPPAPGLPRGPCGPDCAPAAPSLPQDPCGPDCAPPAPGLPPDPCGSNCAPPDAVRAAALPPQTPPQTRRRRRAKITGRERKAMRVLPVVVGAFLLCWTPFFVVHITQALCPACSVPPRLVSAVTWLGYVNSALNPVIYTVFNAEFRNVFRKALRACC
Where a name gives a salt, the structure may show the parent alone.
parameter.measured: pKi
FYI, pKi means -log10 of a concentration in mol per litre.

Recorded results for 3 compounds are shown here.
- compound: "O=C(Cc1ccc(Cl)c(Cl)c1)N1CCCC[C@H]1CN1CCCC1"
  pKi: 5.69
- compound: "N#Cc1ccc2[nH]cc(CCCCN3CCN(c4ccc5oc(C(N)=O)cc5c4)CC3)c2c1 [VILAZODONE HYDROCHLORIDE]"
  pKi: 6.08
- compound: "CC(C)[C@H](CO)Nc1nc(Nc2cccc(Cl)c2)c2ncn(C(C)C)c2n1"
  pKi: 5.31

In the following, a different compound is considered.
IN: Consider the compound CC(C)NCC(O)COc1cccc2[nH]ccc12 (stereo not given) . State its measured pKi.
OUT: 5.78

* * *

- target.or.test.system: Translocator protein (Homo sapiens)
- Sequence (P30536 whole entry): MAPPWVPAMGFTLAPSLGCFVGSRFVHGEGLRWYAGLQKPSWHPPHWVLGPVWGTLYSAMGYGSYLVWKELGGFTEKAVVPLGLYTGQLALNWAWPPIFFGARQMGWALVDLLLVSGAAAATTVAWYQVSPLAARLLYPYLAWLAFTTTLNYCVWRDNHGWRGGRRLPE
Structures can show the parent of a compound that is named as a salt.
Assign labels as follows, please: true for Ki below 2000 nM; false for Ki equal to or exceeding 2000 nM.

Observe how each entry below is paired with its result.
- compound: "C[N+]1(C)[C@@H]2C[C@@H](OC(=O)C(O)(c3cccs3)c3cccs3)C[C@H]1[C@@H]1O[C@@H]12 [TIOTROPIUM BROMIDE]"
  class.label: "false"
- compound: "CNc1nc(NCc2ccc(NS(C)(=O)=O)cc2Cl)cc(-c2ccccn2)n1"
  class.label: "true"
- compound: "COc1ccccc1N1CCN(CCCCNC(=O)c2ccc3ccccc3c2)CC1"
  class.label: "true"

IN: Determine whether this compound shows Ki lower than 2000 nM (ties excluded): CCc1ccc(OCc2ccccc2C(=O)Nc2ccc3nc(C)cc(N)c3c2)cc1
OUT: false

IN: Please indicate whether the reported Ki of COc1cc2nc(N3CCN(C(=O)c4ccco4)CC3)nc(N)c2cc1OC [PRAZOSIN HYDROCHLORIDE] is strictly below 2000 nM.
OUT: false

IN: Quick check: Ki of CC(C)[C@H](CO)Nc1nc(Nc2cccc(Cl)c2)c2ncn(C(C)C)c2n1 under 2000 nM?
OUT: true

* * *

The entries below are paired with their reported log10 of Ki.
- target.or.test.system: Muscarinic acetylcholine receptor M1 (Homo sapiens)
- Sequence (P11229 whole entry): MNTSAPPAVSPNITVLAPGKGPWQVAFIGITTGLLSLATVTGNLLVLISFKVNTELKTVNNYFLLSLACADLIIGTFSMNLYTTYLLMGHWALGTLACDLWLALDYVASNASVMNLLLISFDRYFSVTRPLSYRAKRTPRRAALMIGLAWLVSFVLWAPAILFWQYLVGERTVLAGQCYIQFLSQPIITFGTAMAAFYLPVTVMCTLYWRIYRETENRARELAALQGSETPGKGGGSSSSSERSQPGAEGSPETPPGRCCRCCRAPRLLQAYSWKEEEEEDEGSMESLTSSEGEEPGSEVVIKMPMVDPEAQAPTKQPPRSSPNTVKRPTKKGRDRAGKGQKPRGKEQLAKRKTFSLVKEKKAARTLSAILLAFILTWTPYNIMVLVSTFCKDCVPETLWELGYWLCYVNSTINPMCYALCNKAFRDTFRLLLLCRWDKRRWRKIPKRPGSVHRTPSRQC
Counter-ions that a name gives are not always drawn.
Scale: log10; quantity: Ki; unit before log: µM

Reference set (3 entries):
- molecule: "Clc1cccc(COc2cncc(N3CCNCC3)n2)c1"
  log10 of Ki: -0.02
- molecule: "CN1C2CCC1CC(OC(c1ccc(F)cc1)c1ccc(F)cc1)C2 (stereo not given)"
  log10 of Ki: -2.01
- molecule: "COc1ccc(NC(=O)c2ccc(-c3ccc(-c4noc(C)n4)cc3C)cc2)cc1OCCN(C)C"
  log10 of Ki: 0.28

IN: Name the recorded log10 of Ki of the molecule listed here: CN1CCN(c2ccc(Nc3c4ccccc4nc4ccccc34)cc2)CC1
OUT: -0.14

IN: Return value of log10 of Ki for input Cc1ccc(O)c([C@H](CCN(C(C)C)C(C)C)c2ccccc2)c1 [TOLTERODINE TARTRATE] , no commentary.
OUT: -2.06
